# System: MDA-MB-231 cells
# procedure_details: Caspase 3/7 activity (Caspase-Glo 3/7) in MDA-MB-231 cells
# Format: cell-based, human
# conditions: test peptides at 10 μM, 18 hours, relative to DMSO control
Where no end group is shown, it is not given here.
outcome_measure: Caspase 3/7 Activity, Percent of Control Activity (%)
A number alone suffices; assume %.

Short answer for MVITFIWSCTKIFGA [compound 22] : Caspase 3/7 Activity, Percent of Control Activity was 69

Lab note: MWWVSEPHCVVVNM [compound 12] gave Caspase 3/7 Activity, Percent of Control Activity of 56

Per the record, MVHHRILTVIYKLRPKH [compound 17] has Caspase 3/7 Activity, Percent of Control Activity of 74

The sequence listed as MNIVVGKRLIIKVDATMDFT [compound 7] has a reported Caspase 3/7 Activity, Percent of Control Activity of 73

====

# System: MDA-MB-231 cells
# procedure_details: Cell viability, MTS assay in MDA-MB-231 cells
# Format: cell-based, human
# conditions: human, 72 hours
Where no end group is shown, it is not given here.
outcome_measure: MTS Assay (cell viability), Percent of Control Activity (%)
// units = %; emit number, no label

Sample answers from the record:
[[record]]
sequence_record = "MNIVVGKRLIIKVDATMDFT [compound 7]"
measured_value = 75

[[record]]
sequence_record = "MVITFIWSCTKIFGA [compound 22]"
measured_value = 81

[[record]]
sequence_record = "MWWVSEPHCVVVNM [compound 12]"
measured_value = 78


The sequence identified as MVHHRILTVIYKLRPKH [compound 17] registered its MTS Assay (cell viability), Percent of Control Activity at 82

====

# System: MCF-7 cells
# procedure_details: Cell viability, MTS assay in MCF-7 cells
# conditions: human, 72 hours, 10 µM
Where no end group is shown, it is not given here.
The reader will find reported MTS Assay (cell viability), Percent of Control Activity values listed item by item below.
Number in %, nothing else.

[[record]]
sequence_record = "MNIVVGKRLIIKVDATMDFT [compound 7]"
measured_value = 59

[[record]]
sequence_record = "MVITFIWSCTKIFGA [compound 22]"
measured_value = 58

[[record]]
sequence_record = "MVHHRILTVIYKLRPKH [compound 17]"
measured_value = 60


Note: attention shifts to another entry.
The recorded MTS Assay (cell viability), Percent of Control Activity for entry MWWVSEPHCVVVNM [compound 12] equals 63
